Recorded screen value by entry
B1: RNF115 peptide 67-82 (E3 ubiquitin-protein ligase RNF115), 16-mer library wild type / MDM2 SWIB (MDM2 SWIB/MDM2 domain, residues 17-125) (parent)
chain 1: TTTHFAELWGHLDHTM
chain 2: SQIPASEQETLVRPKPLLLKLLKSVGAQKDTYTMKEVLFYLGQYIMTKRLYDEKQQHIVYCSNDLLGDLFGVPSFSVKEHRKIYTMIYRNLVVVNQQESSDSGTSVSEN

Variants of: B1
Experiment: proteomic peptide phage display deep mutational scan (ProP-PD DMS): M13 P8 16-mer library selected against immobilised GST-tagged bait for four days (rounds), NGS of the eluted pools per day and pseudo-replica
Conditions: with MDM2 SWIB (MDM2 SWIB/MDM2 domain, residues 17-125); bait immobilised on MaxiSorp plates (10 µg), library pre-cleared on GST, 2 h binding at 4 °C, five washes; one round per day, days 1-4; value from days 2 and 3; keep out of graded; scale: average fractional NGS count over selection days 2 and 3
ENDPOINT LABEL: screen value

SEQUENCE CHANGE: chain 1 A6N
EXPERIMENTAL RESULT: 0.000134

SEQUENCE CHANGE: chain 1 T3N
EXPERIMENTAL RESULT: 6.02e-05

SEQUENCE CHANGE: chain 1 W9P
EXPERIMENTAL RESULT: 3.98e-05

SEQUENCE CHANGE: chain 1 W9Q
EXPERIMENTAL RESULT: 0

SEQUENCE CHANGE: chain 1 L12T
EXPERIMENTAL RESULT: 0

SEQUENCE CHANGE: chain 1 L8N
EXPERIMENTAL RESULT: 0

SEQUENCE CHANGE: chain 1 E7L
EXPERIMENTAL RESULT: 7.08e-05

SEQUENCE CHANGE: chain 1 A6F
EXPERIMENTAL RESULT: 0.000296

SEQUENCE CHANGE: chain 1 M16K
EXPERIMENTAL RESULT: 0

SEQUENCE CHANGE: chain 1 T2N
EXPERIMENTAL RESULT: 7.17e-05

SEQUENCE CHANGE: chain 1 G10K
EXPERIMENTAL RESULT: 0

SEQUENCE CHANGE: chain 1 H4R
EXPERIMENTAL RESULT: 1.9e-05

SEQUENCE CHANGE: chain 1 H14D
EXPERIMENTAL RESULT: 2.82e-05

SEQUENCE CHANGE: chain 1 L12K
EXPERIMENTAL RESULT: 0

SEQUENCE CHANGE: chain 1 T2F
EXPERIMENTAL RESULT: 4.31e-05

SEQUENCE CHANGE: chain 1 L8E
EXPERIMENTAL RESULT: 4.72e-05

SEQUENCE CHANGE: chain 1 T15E
EXPERIMENTAL RESULT: 4.41e-05

SEQUENCE CHANGE: chain 1 E7Y
EXPERIMENTAL RESULT: 0

SEQUENCE CHANGE: chain 1 F5D
EXPERIMENTAL RESULT: 0

SEQUENCE CHANGE: chain 1 W9N
EXPERIMENTAL RESULT: 0

SEQUENCE CHANGE: chain 1 E7S
EXPERIMENTAL RESULT: 0

SEQUENCE CHANGE: chain 1 T15P
EXPERIMENTAL RESULT: 7.64e-05

Taken from paper PMC12102759.
